B1: Azoarcus group I ribozyme (parent)
chain: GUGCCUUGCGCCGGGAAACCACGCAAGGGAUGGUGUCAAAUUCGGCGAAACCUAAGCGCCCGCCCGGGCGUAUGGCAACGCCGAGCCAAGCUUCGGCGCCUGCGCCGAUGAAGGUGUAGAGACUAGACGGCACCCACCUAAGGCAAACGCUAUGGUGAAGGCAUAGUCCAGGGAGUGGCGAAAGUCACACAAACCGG

Variants of: B1
Assay: reverse-splicing fitness (ratio to wild type); higher = more active; in vitro selection; Mg2+ level not given
readout: reverse-splicing fitness

>>> df
                                     variant                   readout  measured_number
 0             A120G A145U C150U C169G U176C  reverse-splicing fitness            0.207
 1                   A111G A120G A145U C150A  reverse-splicing fitness           0.0301
 2  C82A A111G A120C A145U C150A C169U U176C  reverse-splicing fitness           0.0123
 3              C82G A111G A120U C169G U176C  reverse-splicing fitness          0.00434
 4                    C82U A145U C169A U176A  reverse-splicing fitness          0.00693
 5                    C82A A111C C169A U176C  reverse-splicing fitness           0.0237
 6        C82A A111G A145U C150A C169G U176G  reverse-splicing fitness          0.00624
 7                   A111U A145G C150U U176C  reverse-splicing fitness            0.692
 8  C82G A111C A120U A145C C150A C169A U176C  reverse-splicing fitness          0.00225
 9                    C82A A111G A120G C150U  reverse-splicing fitness           0.0127
10             A120G A145C C150A C169G U176C  reverse-splicing fitness           0.0391
11                         A111C A120C A145G  reverse-splicing fitness            0.614
12              C82G A120G A145U C169G U176G  reverse-splicing fitness          0.00374
13                   A111C A120C C169A U176A  reverse-splicing fitness           0.0152
14              C82U A111C C150G C169G U176G  reverse-splicing fitness          0.00523
